Test system: SF-268 CNS
experiment notes: NCI-60 one-dose screen, 48 h
condition: 10 µM unless noted
Compounds without any hit were thinned out: in the full panel of roughly 83,000, 20% have a hit. The source made the active and inactive calls. How the source made its calls: active means growth percent below 10; inactive means the rest.
Your answer must be one of the following: yes (1) (active), no (0) (inactive)

Query block: Please indicate how the test categorized `COc1cc2c(cc1OCCCOc1cc3c(cc1OC)C(=O)N1CC(F)(F)C[C@H]1C=N3)N=C[C@@H]1CC(F)(F)CN1C2=O` .
Result block: no (0)

Query block: Assay outcome for `CCc1ccc(OCc2ccccc2C(=O)Nc2ccc3nc(C)cc(N)c3c2)cc1` : what was it?
Result block: yes (1)

Query block: Each compound tested received a call. Report the one for `COC(=O)c1ccc(NC(=O)CSc2nc(-c3ccc(F)cc3)nc3ccccc23)cc1` .
Result block: no (0)

Query block: Lab log entry: `N#Cc1c(-c2ccc(Cl)cc2)cc(-c2cc3ccccc3o2)nc1SCC(=O)c1ccc(Cl)cc1` — outcome as called in the assay?
Result block: no (0)

Query block: What did the test return for `O=C1CS/C(=N/c2nnc(-c3ccc(O)cc3)s2)N1` ?
Result block: no (0)

Query block: Which outcome was entered for the compound `O=C(Nc1ccccc1)NS(=O)(=O)c1c[nH]c(=S)[nH]c1=O` in this test?
Result block: no (0)

Query block: What outcome does the record of this test show for `COc1ccc(C(=S)c2cc(OC)c(OC)c(OC)c2)cc1OC(=O)CCl` ?
Result block: no (0)

Query block: Please indicate how the test categorized `CN1CC=C(c2cc(NC(=O)Nc3ccc(Oc4ccnc(NC(=O)C5CC5)c4)c(F)c3)cc(C(F)(F)F)c2)CC1` .
Result block: yes (1)

Query block: Which result was noted for this compound in the test: `Clc1ccc2c(NCCCNC3CCCCC3)ccnc2c1`
Result block: no (0)

Query block: Please share the test call associated with COc1ccc(C2CC(c3ccc(OC)cc3O)=NN2c2ccc(S(N)(=O)=O)cc2)cc1 (centres undefined) .
Result block: no (0)

Query block: Which outcome was assigned to CC1(C)Cc2c(Br)c(Br)c(Br)c(OCC(O)CN3CCOCC3)c2O1 (centres undefined) in this test?
Result block: no (0)

Query block: Each compound tested received a call. Report the one for `CNc1cccc2c1C(=O)c1cccc(N)c1C2=O` .
Result block: no (0)

Query block: In this assay, the call recorded for `CCCn1c2cc(OCc3cn(-c4ccc(Cl)cc4)nn3)ccc2c2ccnc(C)c21` was what?
Result block: no (0)

Query block: Name the outcome recorded for `CCOC(=O)/C=C1\SC(=Nc2ccc(C#N)cc2)N(CCN2C(=O)/C(=C/C(=O)OCC)SC2=Nc2ccc(C#N)cc2)C1=O` in the assay.
Result block: no (0)

Query block: Call for entry `N#Cc1c(-c2ccc(F)cc2)nc(N=Nc2c(O)[nH]c3ccc(Cl)cc23)nc1N1CCOCC1` :
Result block: no (0)

Query block: What was the test verdict on `COc1ccc2nc(-c3ccc(OC)c(OC)c3)cc(-c3nnc(SCC(=O)Nc4ccc(C(C)=O)cc4)o3)c2c1` ?
Result block: no (0)

Query block: Could you kindly confirm the outcome this assay logged for `Nc1ccc(C(=O)Nc2cccc(C(=O)Nc3ccc4c(O)c(N=Nc5ccc(N=Nc6ccc(S(=O)(=O)O)cc6)cc5)c(S(=O)(=O)O)cc4c3)c2)cc1` ?
Result block: no (0)

Query block: // param item: `O=C(O)C(C(=O)O)c1cccc2ccccc12` ; yields the recorded call
Result block: no (0)

Query block: How was `O=c1c2ccccc2oc2ccc(OCCCCCCN3CCCCCC3)cc12` classified in this test?
Result block: no (0)

----------
Test system: COLO 205 colon
experiment notes: NCI-60 one-dose screen, 48 h
condition: 10 µM unless noted
Compounds without any hit were thinned out: in the full panel of roughly 83,000, 20% have a hit. Activity calls are given as the source filed them. The calls were made as follows: active = growth percent below 10; inactive = the rest.
Classes to choose from: active, inactive

Query block: In this assay, the call recorded for `O=C1Nc2ccc(Cl)cc2/C1=N/c1nc(-c2ccc(F)cc2)cs1` was what?
Result block: inactive

Query block: Assay outcome for `O=S(=O)(O)c1ccc(N=NSc2ccc3ccccc3c2)cc1` : what was it?
Result block: inactive

Query block: Which outcome was entered for the molecule `N#Cc1c(-c2ccc(F)cc2)nc(N=Nc2c(O)[nH]c3ccc(Cl)cc23)nc1N1CCOCC1` in this test?
Result block: inactive

Query block: Outcome? `COc1cc(NCC(=O)Nc2cc(Nc3cccc(C(F)(F)F)c3)ncn2)c(Cl)c(OC)c1Cl`
Result block: inactive

Query block: Recorded test call requested for `CCOC(=O)c1c(C)nc2c(c1N)/C(=C/c1cccs1)C(=O)N2c1ccc(OC)cc1`
Result block: inactive

Query block: What did this assay record as the result for `C=C1C(=O)O[C@H]2[C@H]1CC/C(C=Nc1c(N)cc(C(F)(F)F)cc1Br)=C\CC[C@@]1(C)O[C@@H]21` ?
Result block: active

Query block: What call does the record list for O=C1CC23OC4ON=C(Br)C4C2C(O)c2ccccc2N13 (centres undefined) ?
Result block: inactive

Query block: Hi, sorry to bother you, what did the test record for `COc1cc(-c2csc(NC(=O)Nc3ccc(C(F)(F)F)cc3)n2)cc(OC)c1OC` ?
Result block: active

Query block: Lab log entry: `COc1ccc2c(c1)/C(=C1\S/C(=N/c3nnc(C)s3)NC1=O)C(=O)N2Cc1ccc(Cl)cc1` — outcome as called in the assay?
Result block: inactive

----------
Record form. Attribute: growth. Fill in for each entry.
Tested on: OVCAR-3 ovarian
experiment notes: NCI-60 one-dose screen, 48 h (100 = growth as untreated, 0 = no growth, -100 = all killed)
condition: 10 µM unless noted
Compounds without any hit were thinned out: in the full panel of roughly 83,000, 20% have a hit.
Unit % implied. Number only.

Query block: Need growth, item `COc1cc(NC(=O)COc2cc(C)nc3ccc(OC)cc23)cc(OC)c1`
Result block: 98.9

Query block: State the recorded growth for this entry: `CCC[S@@](=O)c1ccc2nc(NC(=O)OC)[nH]c2c1`
Result block: 93.5

Query block: Consider the compound `O=C(/C(=C/c1ccc([N+](=O)[O-])cc1)SCc1ccc(F)cc1)c1ccc(Cl)cc1` and give its measured growth.
Result block: 70.5

Query block: Which measured growth value corresponds to CCC1S/C(=N\N=C(/C)c2ccc[nH]2)N(c2ccccc2)C1=O (configuration not stated) ?
Result block: 89.7

Query block: Which value of growth has been reported for OCCNc1nc(NCCO)nc(Nc2ccc(C3=NN(c4cc(Cl)cc(Cl)c4)C(c4ccccc4)C3)cc2)n1 (configuration not stated) in the records?
Result block: 26.2

Query block: # growth lookup, item CCCCc1nc(Cl)c(C2CC(c3ccc(Cl)cc3)=NN2c2cc(Cl)cc(Cl)c2)[nH]1 (configuration not stated)
Result block: 65.9

Query block: Name the recorded growth for `CC(=O)OC[C@]12CC[C@@H](c3cn(Cc4ccc(Cn5cc([C@@H]6CC[C@]7(COC(C)=O)CC[C@]8(C)[C@H](CC[C@@H]9[C@@]%10(C)CC[C@H](OC(C)=O)C(C)(C)[C@@H]%10CC[C@]98C)[C@@H]67)nn5)cc4)nn3)[C@@H]1[C@H]1CC[C@@H]3[C@@]4(C)CC[C@H](OC(C)=O)C(C)(C)[C@@H]4CC[C@@]3(C)[C@]1(C)CC2` .
Result block: 97.4

----------
Consider the following compounds; for each one, report its growth.
Test system: NCI-H322M lung
experiment notes: NCI-60 one-dose screen, 48 h (100 = growth as untreated, 0 = no growth, -100 = all killed)
condition: 10 µM unless noted
Procedure: Growth inhibition of the NCI-H322M human Non-Small Cell Lung tumor cell line is measured as a screen for anti-cancer activity. Cells are grown in 96 well plates and exposed to the test compound for 48 hours. Compounds are tested at a single concentration, which is 10^-5 M for most compounds. The reported endpoint is percent growth (GI% or GIPRCNT), where numbers from 0 - 100% represent growth inhibition, and numbers from -100% - 0 represent cell death. […]
About 83,000 compounds went through this panel and 20% of them were active in at least one assay; those are over-represented in the sample as a whole.
Field format: number, assumed %, no unit text.

Query block: Can you look up the measured growth of `COC(=O)c1ccc2c(c1)NC(=O)[C@@H]1CCCN21` for me?
Result block: 99.3

Query block: Looking for the measured growth of `Cc1cc(Nc2nc(SCc3ccc(C(=O)Nc4ccc(F)cc4N)cc3)nn3cccc23)n[nH]1` , can you help?
Result block: 52.8

Query block: Form field: reported growth of `C#CCN(CCCOc1ccc(Cl)cc1Cl)CCCSC(=O)CCCCCN1/C(=C\C=C2/CCCC(/C=C/C3=[N+](CCCCCC(=O)[O-])c4ccccc4C3(C)C)=C2Cl)C(C)(C)c2ccccc21`
Result block: 83.7

Query block: For the compound `O=C(O)c1cn(C2CC2)c2cc(N3CCN(C(=O)CSc4nnc(-c5ccc(Cl)cc5)n4-c4ccccc4)CC3)c(F)cc2c1=O` , what growth is on record?
Result block: 110

Query block: Param item = `COc1cc(NC(=O)COc2cc(C)nc3ccc(OC)cc23)cc(OC)c1` ; retrieve measured growth.
Result block: 94

Query block: Query (compound): `Cc1ccc(-c2nc(C#N)c(S(=O)(=O)N(C)CCO)o2)cc1` ; field requested: growth
Result block: 93.3

Query block: Which growth is listed for CC1(c2ccccc2Cl)NC(=O)NC1=O (centres undefined) ?
Result block: 98.8

Query block: What measured growth goes with `COc1cc(C(=O)N2CCN(c3ccccc3OC)CC2)c(NC(=O)c2cnccn2)cc1OCc1ccccc1` ?
Result block: 69.4

Query block: Name the reported growth value associated with the compound `C=CCn1c(SCC(=O)Nc2ccc(C(=O)/C=C/c3ccc(Cl)cc3)cc2)nnc1-c1cc(OC)c(OC)c(OC)c1`
Result block: 101
